Target: human PPARalpha (Homo sapiens (Human), UniProt Q07869)
Sequence (Q07869 168-468): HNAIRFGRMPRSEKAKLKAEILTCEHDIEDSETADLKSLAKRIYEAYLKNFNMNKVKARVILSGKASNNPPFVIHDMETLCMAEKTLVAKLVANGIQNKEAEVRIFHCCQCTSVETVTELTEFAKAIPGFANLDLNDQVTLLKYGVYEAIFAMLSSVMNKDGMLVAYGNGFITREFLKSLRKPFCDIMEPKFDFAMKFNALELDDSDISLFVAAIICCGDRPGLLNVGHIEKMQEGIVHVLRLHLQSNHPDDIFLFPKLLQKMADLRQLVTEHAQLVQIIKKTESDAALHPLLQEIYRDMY
Assay: Transactivation (reporter gene) assay, GAL4-PPARalpha LBD in U-2 OS cells
Details: 40 h incubation, 16 μM ETYA as 100% control, read-out: EC50 PPARα
Procedure: Transactivation Assay Expression vectors were prepared by inserting the ligand binding domain cDNA (complementary DNA) of human PPARalpha (amino acid 168-468) and human PPARgamma (amino acid 205-505), 3′ to and in frame with, the yeast GAL4 transcription factor DNA binding domain and the nuclear localization signal from the T-antigen of Polyoma Virus into the mammalian expression vector pSGS (Stratagene). […]
metric: EC50

For orientation, consider the following solved cases.
molecule	result
O=C(Cc1cccc(SCc2ccccc2C(=O)O)c1)OCCc1ccccc1C(F)(F)F	3.8 µM
CC(OC(=O)Cc1cccc(SCc2ccccc2C(=O)O)c1)c1ccc(C(F)(F)F)cc1 (centres unmarked)	18 µM
CS(=O)(=O)Oc1ccc(CCSC(=O)c2ccc(CC(SCCc3ccc(F)cc3)C(=O)O)cc2)cc1 (centres unmarked)	3.4 µM

I would be grateful if you could provide EC50 for each of the following entries.
1. CS(=O)(=O)Oc1ccc(COC(=O)Cc2ccc(CC(SCCc3ccc(F)cc3)C(=O)O)cc2)cc1 (centres unmarked)
2. Cc1oc(-c2ccccc2)nc1CC(=O)OCc1ccc(CC(SCCc2ccc(F)cc2)C(=O)O)cc1 (single isomer, unassigned; (-)) [Example 19]
3. Cc1oc(-c2ccccc2)nc1CCOC(=O)c1ccc(CC(SCCc2ccc(F)cc2)C(=O)O)cc1 (single isomer, unassigned) [Example 20]

["1.4 µM", "0.072 µM", "0.84 µM"]

I would be grateful if you could provide EC50 for each of the following entries.
1. CCO[C@@H](Cc1ccc(OC(=O)Cc2ccc(NC(=O)OC(C)(C)C)cc2)cc1)C(=O)O
2. O=C(Cc1cccc(SCc2ccccc2C(=O)O)c1)OCCc1ccc(C(F)(F)F)cc1

1: 18 µM; 2: 5.5 µM

Taken from patent US9181181B2.
